The reported measurements were obtained from patent US20260242478A1.

Molecular target: T1, Anti-PSMA Fab (SEQ ID NOs: 19, 20)
T1 construct: Biotinylated and captured on neutravidin coated plates in the phage ELISA; also called 006 PSMA Fab
Assay: phage binding ELISA; biotinylated Fab on neutravidin plate, clonal phage detected with anti-M13 HRP
metric: Anti-PSMA Fab (SEQ ID NOs: 19, 20) signal
Answer field: number only, no words.

                        binder  result_value
0  YTNWCIPSWMCEGF [Phage-2274]          1.52
1  AVKLCTPMWMCMGF [Phage-2282]          1.51
2  FAILCKPMWMCEHI [Phage-2280]          1.51
3  VVKWCSPPWMCEYF [Phage-2270]          1.53

What does the data say about its Anti-PSMA Fab (SEQ ID NOs: 19, 20) signal? Entry: MPKWCIPTWMCEST [Phage-2281]
1.51

Moving on to FAKWCTPQWMCSAM [Phage-2269]
1.53

Can you handle WDMRCTPIWMCEGF [Phage-2272] next?
1.52
